Overview of recorded growth for various compounds
# Test system: SN12C renal
# Protocol: NCI-60 one-dose screen, 48 h (100 = growth as untreated, 0 = no growth, -100 = all killed)
# Experimental Parameters: 10 µM
This is part of a sample that, as a whole, favours compounds with a hit. Of some 83,000 tested, about 20% had one in any assay.
Measured Endpoint: growth (%)

smiles_record=Brc1ccc(/C=C/c2n(Cc3ccc4ccccc4c3)c3ccccc3[n+]2Cc2ccc3ccccc3c2)cc1 assayed_system="SN12C renal" measured_endpoint=growth unit_spec=% observed_measurement=-58.9
smiles_record=COc1cc(/C=C/C(=O)c2cc(OC)c(OC)c(OC)c2)ccc1Oc1nc(Nc2ccc(F)cc2)nc(N(C)C)n1 assayed_system="SN12C renal" measured_endpoint=growth unit_spec=% observed_measurement=-89.3
smiles_record=CONC[C@]1(C)C=C2C(=O)[C@](C)(O)C3(CC3)C(C)=C2[C@H]1O assayed_system="SN12C renal" measured_endpoint=growth unit_spec=% observed_measurement=-6.45
